test system: DMS 114 small cell lung; assay: NCI tumour cell line growth inhibition, 48 h
reported.property: TGI

Task: TGI lookup needed for N#CC(C(=O)CCCC(=O)Nc1ccc(Cl)cc1Cl)c1ccccc1 (stereo not drawn) , thanks.
Output: > 100 µM

Task: Could you share which TGI value was measured for `CCOC(=O)/C(=C/c1cccc(Cl)c1)N(CC)CC` ?
Output: > 100 µM

Task: What value of measured TGI is listed for `Cc1cccc(C(=O)O)c1C(=O)c1cccc2ccccc12` ?
Output: > 100 µM

---

tested on: HOP-62 NSCLC; assay: NCI tumour cell line growth inhibition, 48 h; in the data active = GI50 below about 0.43 µM; inactive = the rest
Respond only with the outcome that fits, drawn from active, inactive

Task: Please let me know the test result on file for `CC(C)N(Cc1ccc(CN(C(=O)CCl)C(C)C)cc1)C(=O)CCl` .
Output: inactive

Task: What classification did `O=C(CN(/C=C/C(=O)C(F)(F)F)c1ccc(Cl)cc1)c1ccc(Cl)c(Cl)c1` end up with in this test?
Output: inactive

Task: For this compound, state the assay outcome: `COc1ccc(C(=O)c2cc(C)c(OC)c(C)c2)c(OC)c1NC(C)=O`
Output: active

Task: What classification did `O=C(NCC(F)(F)F)Nc1cccc(-c2cnc3cc(-c4ccc(F)cc4)ccn23)c1` end up with in this test?
Output: inactive

Task: Assay outcome for `CS(=O)(=O)Nc1cccc(-c2ccc3ncnc(Nc4ccc(F)c(Cl)c4)c3c2)c1` : what was it?
Output: inactive

Task: What classification did CC(=O)OC12C=C(C)C(C(C)C1)C1C(=O)N(CCN3CCCCC3)C(=O)C12 (configuration not stated) end up with in this test?
Output: inactive

Task: Field: outcome | Entry: `CSc1nc2nc3c(nc2c(=O)n1C)C(=O)c1ccccc1C3=O`
Output: active

---

tested on: SK-MEL-5 melanoma; experiment: NCI tumour cell line growth inhibition, 48 h
reported.property: TGI

Task: Please give the measured TGI for this molecule: `Cc1cc(N(CCOS(C)(=O)=O)CCOS(C)(=O)=O)ccc1C(=O)O`
Output: > 100 µM

Task: Item CCOC(=O)CCC(C(=O)OCC)n1nnc2cc(Nc3c(C)[n+]([O-])c4cc(F)c(OCC)cc4[n+]3[O-])ccc21 (stereo not drawn) has what recorded TGI?
Output: > 100 µM

Task: If you can, please state the reported TGI value of `O=C(Nc1nn[nH]n1)c1nc(-c2ccccc2)cc(=O)[nH]1` .
Output: > 100 µM

---

tested on: RXF 393 renal; experiment: NCI tumour cell line growth inhibition, 48 h
Please provide measured TGI for the entries that follow.

Task: Could you tell me which TGI is on file for `CC(=O)OC[C@H]1On2nnnc2[C@H](OC(C)=O)[C@@H](OC(C)=O)[C@@H]1OC(C)=O` ?
Output: > 100 µM

Task: TGI for `CC(C)c1cc(C(C)C)c(S(=O)(=O)N=[N+]=[N-])c(C(C)C)c1` ?
Output: > 100 µM

Task: Reported TGI, compound `S=C1SC(=Nc2ccccc2)C(=Nc2ccccc2)N1c1ccc2ccccc2c1` : ____
Output: > 100 µM

Task: Recorded TGI for CC1(C)Oc2ccc3c(=O)cc(-c4ccccc4)oc3c2C1C(=O)O (stereo unspecified) , please?
Output: > 100 µM

Task: // returns reported TGI for input `NC(=O)c1ccc(Oc2nccc(-c3c(-c4ccc(F)cc4)ncn3C3CCNCC3)n2)cc1`
Output: > 25 µM

Task: Looking for the measured TGI of `CC1=C(SC#N)S(=O)(=O)N(c2ccccc2)C(C)=C1SC#N` , can you help?
Output: > 100 µM
